Here the recorded GI50 is given for each entry.
Test system: SK-MEL-5
assay.method.text: NCI tumour cell line growth inhibition, 48 h
Activity calls are given as the source filed them. No stated cut-off is given here; in the data, active = GI50 up to about 1.1 µM and inactive = higher.

compound | assayed.target | GI50
COC(=O)c1cc(-c2ccc(OC)c(OC)c2)oc1-c1ccc(OC)c(OC)c1 | SK-MEL-5 | > 10 µM (inactive)
O=C1c2ccccc2C2CCC1c1ccccc12 (configuration not stated) | SK-MEL-5 | 16.3 µM (inactive)

Record CSc1ccc(/C=C2\N=C(c3ccccc3)N(/N=C3\C(=O)Nc4ccccc43)C2=O)cc1 . Reported GI50: > 100 µM (inactive)

Record O=C1OC(c2ccccc2)(c2ccccc2)c2ccc3ccc(F)cc3c21 . Reported GI50: 20 µM (inactive)

Record O=C(O)CCCc1ccccc1 [SODIUM PHENYLBUTYRATE] . Reported GI50: 162 µM (inactive)

###

Test system: TK-10
assay.method.text: NCI tumour cell line growth inhibition, 48 h
Activity calls are given as the source filed them. Cut-off read from the data, not from the text of the source: active = GI50 up to about 1.1 µM and inactive = higher.
measurement.type: GI50

compound | result
CCN(CC)CCNc1ccc2nnn3c4ccc(OC(C)=O)cc4c(=O)c1c23 | 3.52 µM (inactive)
CC1(C)OC[C@@H]([C@@]2(COC(c3ccccc3)(c3ccccc3)c3ccccc3)CC=CC(=O)O2)O1 | 46.5 µM (inactive)
Cc1ccc([N+](=O)[O-])cc1NC(=O)C(=O)Cc1occc(=O)c1O | > 100 µM (inactive)
CC(C)(C)c1cc(C(C)(C)C)c(P=C(Cl)Cl)c(C(C)(C)C)c1 (stereo not drawn) | > 100 µM (inactive)
O=c1c(Br)cc2nc3ccccc3sc-2c1Br | > 100 µM (inactive)

Record C1=Nc2ccccc2Cn2nncc21 . Reported GI50: > 100 µM (inactive)

Record CCOC(=O)CSC1NC(C(=O)OC)CC1OC (stereo not drawn) . Reported GI50: > 100 µM (inactive)

Record CC[C@@]1(O)C(=O)OCc2c1cc1n(c2=O)Cc2c-1nc1ccccc1c2/C=N\NC(=O)C(N)CO (stereo partly drawn) . Reported GI50: > 60.7 µM (inactive)

Record COc1ccc2c(c1)OCc1c-2oc2ccccc2c1=O . Reported GI50: > 100 µM (inactive)

Record CO/N=C\c1cc(O)c(O)c(/C=N/OC)c1 . Reported GI50: 86.7 µM (inactive)

Record COc1ccc(-n2nnc3c(C#N)c(C)c(-c4ccccc4)n3c2=O)cc1 . Reported GI50: > 43.2 µM (inactive)

Record NC(CCCNc1cccc(O)c1)C(=O)O (stereo not drawn) . Reported GI50: > 100 µM (inactive)

Record C=CCC1(OCc2ccccc2)C(=O)C(=O)OC1C1COC(C)(C)O1 (stereo not drawn) . Reported GI50: > 100 µM (inactive)

Record CC(C)=NN/C=N\C(C#N)=C(/N)C#N . Reported GI50: > 100 µM (inactive)

Record O=C1CSC2(CC(/C=C/c3cccs3)=NN2c2cccc(S(=O)(=O)O)c2)N1c1nc2ccccc2s1 (stereo not drawn) . Reported GI50: 62.1 µM (inactive)

Record COc1ccc(-c2cc3ccccc3oc2=O)cc1OC . Reported GI50: > 100 µM (inactive)

Record CN(C)CCN1N=Nc2cccc3cccc1c23 . Reported GI50: > 100 µM (inactive)

Record O=[N+]([O-])c1ccc(C(c2c[nH]c3ccccc23)c2c[nH]c3ccccc23)cc1 . Reported GI50: 12.7 µM (inactive)

Record CC(C)Cc1cc(CCC(=O)Nc2ccccc2[N+](=O)[O-])nc(NC#N)n1 . Reported GI50: > 100 µM (inactive)

Record C/C(=C\CCC1=CC(=O)OC1)CCC1C2C(=O)CC(C)[C@@]3(C)CC[C@]1(C)[C@@]23C (stereo partly drawn) . Reported GI50: > 10 µM (inactive)

Record Cc1ccc(NC(=O)CC/C(CC(=O)C(C)(C)C)=N/Nc2nnc(C)n2N)cc1C . Reported GI50: > 100 µM (inactive)

Record Nc1ncn2c(n1)nc1ccccc12 . Reported GI50: > 100 µM (inactive)

Record Cc1nnc2c3c(-c4ccccc4)c(-c4ccccc4)oc3nc(N(C)C)n12 . Reported GI50: > 100 µM (inactive)

###

Tested on: CCRF-CEM
assay.method.text: NCI tumour cell line growth inhibition, 48 h
Activity calls are given as the source filed them. Rule as the data show it: active = GI50 up to about 1.1 µM and inactive = higher.
measurement.type: GI50

Record N#C/C(=C\c1ccc(F)cc1)c1nc(-c2cc3ccccc3oc2=O)cs1 . Reported GI50: > 100 µM (inactive)

Record Cn1c(Nc2ccccc2)c(/C=N\c2ccccc2)c(=O)n(C)c1=O . Reported GI50: > 100 µM (inactive)

Record CN(C)CCN1N=Nc2cccc3cccc1c23 . Reported GI50: > 47 µM (inactive)

Record CC1CCN(CCC(=O)CC(c2ccccc2)c2c(O)c3ccccc3oc2=O)CC1 (stereo unspecified) . Reported GI50: > 100 µM (inactive)

Record Cc1nc(N)sc1C(=O)/C=C\c1ccc2c(c1)OCO2 . Reported GI50: > 100 µM (inactive)

Record CC1(C)C(O)c2ccccc2OC1N1CCN(C2Oc3ccccc3C(O)C2(C)C)CC1 (stereo unspecified) . Reported GI50: > 100 µM (inactive)

Record Cc1cc2nc3c(=O)n(C)c(=O)nc-3n(-c3ccc(Cl)cc3)c2cc1C . Reported GI50: 13.6 µM (inactive)

Record COC(=O)C(C#N)=C1c2ccccc2Oc2ccccc21 . Reported GI50: 32.4 µM (inactive)

Record Cc1cc2c(cc1O)CC[C@@H]1[C@@H]2CC[C@]2(C)[C@@H](O)CC[C@@H]12 . Reported GI50: 4.32 µM (inactive)

Record NC(=O)CC(N/C=C1/N=C(c2ccccc2)OC1=O)C(=O)O (stereo unspecified) . Reported GI50: > 100 µM (inactive)

Record CN(C)c1ccc(C(N)=O)cn1 . Reported GI50: > 100 µM (inactive)

###

Tested on: SW-620
assay.method.text: NCI tumour cell line growth inhibition, 48 h
Active and inactive are the calls of the source. No stated cut-off is given here; in the data, active = GI50 up to about 1.1 µM and inactive = higher.
Hi! Could you answer with just one of these? TRUE = active, FALSE = inactive

molecule | class
CC(N)C(C)c1ccccc1 (stereo not drawn) | FALSE
CC1=C(c2cc(C(=O)Nc3ccc(Cl)cc3)nc(S)n2)Sc2ccccc2N1 | FALSE
NNC(=O)Cn1ccnn1 | FALSE
Nc1ccccc1Nc1ccccc1C(=O)[O-].Nc1ccccc1Nc1ccccc1C(=O)[O-].[Zn+2] | FALSE
c1ccc2c3nnc(c2c1)SCCCSc1nnc(c2ccccc12)SCCCS3 | FALSE
CC1(C)C(c2ccccc2)=NN(O)c2ccccc21 | FALSE

Q. Name the outcome recorded for COC(=O)C(C#N)=C1c2ccccc2Oc2ccccc21 in the assay.
A. FALSE

Q. Name the outcome recorded for O=C(NCCCCNCCCNC(=O)c1ccccc1)c1ccccc1 in the assay.
A. FALSE

###

System: A498
assay.method.text: NCI tumour cell line growth inhibition, 48 h
Calls of active or inactive are those of the source. Cut-off read from the data, not from the text of the source: active = GI50 up to about 1.1 µM and inactive = higher.
Here the recorded GI50 is given for each entry.

Observe how each entry below is paired with its result.
compound | result
CN(C)c1ccc(/C=N/N=C2\C(=O)Nc3c(Cl)cc(Cl)cc32)cc1 | 32.2 µM (inactive)
CCCCCCCCCC[C@@H](O)[C@H]1CC[C@H]([C@H]2CC[C@H]([C@H](O)CCCCCCCCCC[C@@H]3CC(CC(C)=O)C(=O)O3)O2)O1 (some centres undefined) | > 28.5 µM (inactive)

For S=C(/C=C1\SC(=N\c2ccccc2)/C(=N/c2ccccc2)N1c1ccccc1)Nc1ccccc1 on A498, measured GI50 was > 100 µM (inactive)

For O=c1[nH]c2cc(F)c(F)cc2nc1Cc1ccccc1 on A498, measured GI50 was > 100 µM (inactive)

For C=C(C=O)[C@@H]1C2OC(=O)C(=C)[C@@H]2CC(O)[C@@]1(C)CC (some centres undefined) on A498, measured GI50 was 17.1 µM (inactive)

For Cc1cc2nc3c(=O)n(C)c(=O)nc-3n(-c3ccc(Cl)cc3)c2cc1C on A498, measured GI50 was 31.1 µM (inactive)

For N[C@H]1CCCC[C@@H]1N1C(=O)c2ccccc2C1(O)c1ccc(Cl)cc1 (some centres undefined) on A498, measured GI50 was 13.7 µM (inactive)

For c1ccc(C(NC2CCCCC2NCCNC2CCCCC2NC(c2ccccc2)(c2ccccc2)c2ccccc2)(c2ccccc2)c2ccccc2)cc1 (centres undefined) on A498, measured GI50 was 22.6 µM (inactive)

For FC(F)(F)C1(C(F)(F)F)OC(Cl)(Cl)C(Cl)(Cl)O1 on A498, measured GI50 was > 10 µM (inactive)

For COc1cccc2c1C(=O)c1c(O)c3c(c(O)c1C2=O)C[C@@](O)(C(C)=O)C[C@@H]3OC1CC([N+]([O-])(Cc2ccccc2)Cc2ccccc2)C(O)C(C)O1 (some centres undefined) on A498, measured GI50 was 2.46 µM (inactive)

For NCCCNCCSP(=O)(O)O on A498, measured GI50 was > 75 µM (inactive)

For CCCCCCCCCCCCCCCCNc1ccn(C2CC(OP(=O)(O)OCC3OC(n4cc(CC)c(=O)[nH]c4=O)CC3O)C(CO)O2)c(=O)n1 (centres undefined) on A498, measured GI50 was > 100 µM (inactive)

For O=C1C(=O)C(CCCO)(CCCO)CCCCCCCCC1(CCCO)CCCO on A498, measured GI50 was > 100 µM (inactive)

For CC(C)c1cccc2sc(NC(=O)C(=O)CC(=O)c3ccc(F)cc3)nc12 on A498, measured GI50 was > 100 µM (inactive)

For CC(=O)c1ccccc1NS(=O)(=O)c1ccc2nc(C)n(NS(=O)(=O)c3ccccc3C(C)=O)c(=O)c2c1 on A498, measured GI50 was > 100 µM (inactive)

For CCCNC(=S)N/N=C1\C(=O)Nc2ccccc21 on A498, measured GI50 was > 100 µM (inactive)

For O=C1c2ccccc2C(=O)c2c(NC(=O)C(Cl)CCl)cccc21 (centres undefined) on A498, measured GI50 was 19.2 µM (inactive)

For Cc1cc(NC(=O)C(=O)Cc2cnc3ccccc3n2)c(S(=O)(=O)O)cc1Cl on A498, measured GI50 was > 100 µM (inactive)

For CC1=CCC2CC1NC(=O)CCOCCC(=O)NC2(C)C (centres undefined) on A498, measured GI50 was > 100 µM (inactive)

Where do these numbers come from? They come from ChEMBL document CHEMBL1201862.
